Molecular target: T1, soluble human Lag3-IgG1-Fc with biotinylated C-terminal Avi-tag (human, biotin on the C-terminal Avi-tag)
T1 construct: also called LAG3-Fc-avi; biotinylated LAG3-Fc antigen
Experiment: A375 MHCII competition ELISA at 3 µg/ml, biotinylated Lag3 250 ng/ml; competitor MHCII on A375 cells
Reported % Inhibition values are given for each entry in this list.
Note: unit % is implicit; provide only the numeric part.

Fill in: % Inhibition of bivalent 17D7 aVH-Fc (Fc fusion) EVQLVESGGGLVQPGGSLRLSCAASGFNIKDTCIGWVRRAPGKGTELVAEICTDIGYTRYADSVKGRFTISADTSKNTAYLQMNSLRAEDTAVYYCAAGEGSSGFHYWGQGTTVTVSSGGGGSGGGGSDKTHTCPPCPAPEAAGGPSVFLFPPKPKDTLMISRTPEVTCVVVDVSHEDPEVKFNWYVDGVEVHNAKTKPREEQYNSTYRVVSVLTVLHQDWLNGKEYKCKVSNKALGAPIEKTISKAKGQPREPQVYTLPPSRDELTKNQVSLTCLVKGFYPSDIAVEWESNGQPENNYKTTPPVLDSDGSFFLYSKLTVDKSRWQQGNVFSCSVMHEALHNHYTQKSLSLSPGK is ___
91.7

Another binder to look at: bivalent 21B11 aVH-Fc (Fc fusion) EVQLVESGGGLVQPGGSLRLSCAASGFNIKDTCIGWVRRAPGKGTELVAEICQDIGYTRYADSVKGRFTISADTSKNTAYLQMNSLRAEDTAVYYCAADESVDNFKYWGQGTTVTVSSGGGGSGGGGSDKTHTCPPCPAPEAAGGPSVFLFPPKPKDTLMISRTPEVTCVVVDVSHEDPEVKFNWYVDGVEVHNAKTKPREEQYNSTYRVVSVLTVLHQDWLNGKEYKCKVSNKALGAPIEKTISKAKGQPREPQVYTLPPSRDELTKNQVSLTCLVKGFYPSDIAVEWESNGQPENNYKTTPPVLDSDGSFFLYSKLTVDKSRWQQGNVFSCSVMHEALHNHYTQKSLSLSPGK
96.7

Another binder to look at: bivalent P11E2 aVH-Fc (Fc fusion) EVQLVESGGGLVQPGGSLRLSCAASGFNIKDTCIGWVRRAPGKGTELVAEICDDIGYTRYADSVKGRFTISADTSKNTAYLQMNSLRAEDTAVYYCASQEHQWSFKYWGQGTTVTVSSGGGGSGGGGSDKTHTCPPCPAPEAAGGPSVFLFPPKPKDTLMISRTPEVTCVVVDVSHEDPEVKFNWYVDGVEVHNAKTKPREEQYNSTYRVVSVLTVLHQDWLNGKEYKCKVSNKALGAPIEKTISKAKGQPREPQVYTLPPSRDELTKNQVSLTCLVKGFYPSDIAVEWESNGQPENNYKTTPPVLDSDGSFFLYSKLTVDKSRWQQGNVFSCSVMHEALHNHYTQKSLSLSPGK
91
